Listing of entries alongside the reported IC50.
Biological target: MAO-A (Homo sapiens)
Sequence (P21397 whole entry): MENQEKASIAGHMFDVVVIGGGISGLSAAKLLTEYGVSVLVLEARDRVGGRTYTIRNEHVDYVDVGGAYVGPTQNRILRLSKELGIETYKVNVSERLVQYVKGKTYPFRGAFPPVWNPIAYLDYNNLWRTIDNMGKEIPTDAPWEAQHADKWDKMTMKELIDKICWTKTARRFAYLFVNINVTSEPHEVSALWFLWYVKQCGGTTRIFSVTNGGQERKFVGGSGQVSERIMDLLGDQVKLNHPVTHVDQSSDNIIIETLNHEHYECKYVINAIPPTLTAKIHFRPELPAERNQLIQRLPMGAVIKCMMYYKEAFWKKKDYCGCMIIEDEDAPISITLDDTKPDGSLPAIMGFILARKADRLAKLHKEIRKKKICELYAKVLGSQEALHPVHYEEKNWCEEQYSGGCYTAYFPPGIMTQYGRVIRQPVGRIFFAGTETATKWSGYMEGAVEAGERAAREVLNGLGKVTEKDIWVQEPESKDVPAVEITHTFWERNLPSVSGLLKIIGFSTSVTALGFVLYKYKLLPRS
Assay: Inhibition of recombinant human MAO-A, kynuramine fluorometric assay
Type: biochemical

{"SMILES_CODE": "O=C1CCOc2cc(OCCOc3ccc(F)cc3)ccc21", "IC50": "5.74 µM"}
{"SMILES_CODE": "O=C1CCCc2cc(OCCOc3ccccc3)ccc21", "IC50": "2.58 µM"}
{"SMILES_CODE": "O=C1CCCc2ccc(OCCOc3ccccc3)cc21", "IC50": "1.91 µM"}
{"SMILES_CODE": "O=C1CCOc2cc(OCCOc3ccc(Br)cc3)ccc21", "IC50": "> 100 µM"}
{"SMILES_CODE": "O=C1CCOc2cc(OCCCc3ccccc3)ccc21", "IC50": "6.4 µM"}
{"SMILES_CODE": "O=C1CCCc2ccc(OCc3ccccc3)cc21", "IC50": "0.623 µM"}
{"SMILES_CODE": "O=C1CCOc2cc(OCCc3ccccc3)ccc21", "IC50": "2.49 µM"}
{"SMILES_CODE": "O=C1CCCc2c(OCCOc3ccccc3)cccc21", "IC50": "> 100 µM"}
